assay-target: T1, IL-18 receptors on HEK-Blue IL-18 reporter cells (UniProt Q13478 19-541; O95256 20-599, limits assumed)
T1 sequence (looked up) 1: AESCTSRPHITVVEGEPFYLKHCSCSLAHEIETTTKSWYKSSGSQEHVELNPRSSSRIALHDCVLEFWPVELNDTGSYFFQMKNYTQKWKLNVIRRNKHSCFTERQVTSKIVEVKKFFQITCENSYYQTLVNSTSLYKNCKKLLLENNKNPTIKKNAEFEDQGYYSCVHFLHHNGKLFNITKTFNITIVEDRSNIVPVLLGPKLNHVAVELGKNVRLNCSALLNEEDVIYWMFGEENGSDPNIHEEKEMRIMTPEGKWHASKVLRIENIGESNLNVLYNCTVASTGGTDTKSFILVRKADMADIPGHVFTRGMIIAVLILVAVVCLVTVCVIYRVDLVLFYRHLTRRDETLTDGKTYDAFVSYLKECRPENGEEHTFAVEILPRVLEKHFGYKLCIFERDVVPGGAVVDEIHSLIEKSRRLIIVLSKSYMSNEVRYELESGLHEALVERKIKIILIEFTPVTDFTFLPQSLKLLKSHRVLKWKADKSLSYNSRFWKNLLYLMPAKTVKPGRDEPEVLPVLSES
T1 sequence (looked up) 2: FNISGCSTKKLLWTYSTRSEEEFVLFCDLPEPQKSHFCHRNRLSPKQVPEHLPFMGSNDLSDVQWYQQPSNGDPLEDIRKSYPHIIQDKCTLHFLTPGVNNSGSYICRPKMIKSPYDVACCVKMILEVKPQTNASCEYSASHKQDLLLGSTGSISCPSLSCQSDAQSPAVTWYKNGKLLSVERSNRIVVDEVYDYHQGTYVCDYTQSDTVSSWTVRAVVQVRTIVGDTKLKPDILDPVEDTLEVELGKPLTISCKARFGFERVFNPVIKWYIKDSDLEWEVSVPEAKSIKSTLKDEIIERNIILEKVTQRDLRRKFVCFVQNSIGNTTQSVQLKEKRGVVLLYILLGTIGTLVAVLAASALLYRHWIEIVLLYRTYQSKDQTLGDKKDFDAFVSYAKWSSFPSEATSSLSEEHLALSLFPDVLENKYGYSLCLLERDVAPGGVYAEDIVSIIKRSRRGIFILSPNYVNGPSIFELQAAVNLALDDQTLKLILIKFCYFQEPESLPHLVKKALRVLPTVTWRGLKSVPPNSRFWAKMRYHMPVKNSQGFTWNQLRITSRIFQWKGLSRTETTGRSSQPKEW
experiment-description: cell-based or functional assay
Consider the following binders; for each one, report its Activity, No BP, DF-2500000.
Form field (numeric): enter value without unit.

The recorded Activity, No BP, DF-2500000 for IL-18 variant G3P, E6N, D54Y, T63S, N91S, R104Q (ligand) YFPKLNSKLSVIRNLNDQVLFIDQGNRPLFEDMTDSDMRDNAPRTIFIISMYKYSQPRGMAVSISVKSEKISTLSSENKIISFKEMNPPDSIKDTKSDIIFFQQSVPGHDNKMQFESSSYEGYFLASEKERDLFKLILKKEDELGDRSIMFTVQNED is 0.07

The recorded Activity, No BP, DF-2500000 for IL-18 variant G3P, E6V, K53A, D54W, S55P, T63S, N91L, R104K, Q154R (ligand) YFPKLVSKLSVIRNLNDQVLFIDQGNRPLFEDMTDSDMRDNAPRTIFIISMYAWPQPRGMAVSISVKSEKISTLSSENKIISFKEMNPPDLIKDTKSDIIFFQKSVPGHDNKMQFESSSYEGYFLASEKERDLFKLILKKEDELGDRSIMFTVRNED is 0.08

The recorded Activity, No BP, DF-2500000 for IL-18 variant G3P, E6K, D54R, S55P, T63A, N91V (ligand) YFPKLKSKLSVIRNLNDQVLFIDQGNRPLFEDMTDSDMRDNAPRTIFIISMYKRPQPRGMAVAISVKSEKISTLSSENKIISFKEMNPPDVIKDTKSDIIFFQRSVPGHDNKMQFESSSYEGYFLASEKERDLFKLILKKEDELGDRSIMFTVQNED is 0.22

The recorded Activity, No BP, DF-2500000 for IL-18 variant G3P, E6R, D54W, S55Q, T63S, N91T, R104H (ligand) YFPKLRSKLSVIRNLNDQVLFIDQGNRPLFEDMTDSDMRDNAPRTIFIISMYKWQQPRGMAVSISVKSEKISTLSSENKIISFKEMNPPDTIKDTKSDIIFFQHSVPGHDNKMQFESSSYEGYFLASEKERDLFKLILKKEDELGDRSIMFTVQNED is 0.09

The recorded Activity, No BP, DF-2500000 for IL-18 variant G3P, E6K, K53M, D54W, S55N, T63S, N91I (ligand) YFPKLKSKLSVIRNLNDQVLFIDQGNRPLFEDMTDSDMRDNAPRTIFIISMYMWNQPRGMAVSISVKSEKISTLSSENKIISFKEMNPPDIIKDTKSDIIFFQRSVPGHDNKMQFESSSYEGYFLASEKERDLFKLILKKEDELGDRSIMFTVQNED is 0.08

The recorded Activity, No BP, DF-2500000 for IL-18 variant G3V, E6Q, T34P, D54M, S55F, N91R, R104H (ligand) YFVKLQSKLSVIRNLNDQVLFIDQGNRPLFEDMPDSDMRDNAPRTIFIISMYKMFQPRGMAVTISVKSEKISTLSSENKIISFKEMNPPDRIKDTKSDIIFFQHSVPGHDNKMQFESSSYEGYFLASEKERDLFKLILKKEDELGDRSIMFTVQNED is 0.13

The recorded Activity, No BP, DF-2500000 for IL-18 variant G3P, E6K, D54Y, S55P, T63S, N91S, R104Q (ligand) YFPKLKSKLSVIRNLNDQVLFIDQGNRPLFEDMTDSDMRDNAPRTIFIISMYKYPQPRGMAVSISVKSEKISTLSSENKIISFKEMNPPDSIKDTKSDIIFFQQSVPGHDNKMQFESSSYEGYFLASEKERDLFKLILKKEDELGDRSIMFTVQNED is 0.72

The recorded Activity, No BP, DF-2500000 for IL-18 variant G3P, E6K, K53T, D54Y, S55V, T63I, N91I (ligand) YFPKLKSKLSVIRNLNDQVLFIDQGNRPLFEDMTDSDMRDNAPRTIFIISMYTYVQPRGMAVIISVKSEKISTLSSENKIISFKEMNPPDIIKDTKSDIIFFQRSVPGHDNKMQFESSSYEGYFLASEKERDLFKLILKKEDELGDRSIMFTVQNED is 0.07

The recorded Activity, No BP, DF-2500000 for IL-18 variant G3P, E6I, K53N, D54W, S55P, T63S, N91L, R104Q (ligand) YFPKLISKLSVIRNLNDQVLFIDQGNRPLFEDMTDSDMRDNAPRTIFIISMYNWPQPRGMAVSISVKSEKISTLSSENKIISFKEMNPPDLIKDTKSDIIFFQQSVPGHDNKMQFESSSYEGYFLASEKERDLFKLILKKEDELGDRSIMFTVQNED is 0.07

The recorded Activity, No BP, DF-2500000 for IL-18 variant G3Q, E6H, S7Y, D23A, R27S, D54S, S55R, T63F, N91F, R104Q (ligand) YFQKLHYKLSVIRNLNDQVLFIAQGNSPLFEDMTDSDMRDNAPRTIFIISMYKSRQPRGMAVFISVKSEKISTLSSENKIISFKEMNPPDFIKDTKSDIIFFQQSVPGHDNKMQFESSSYEGYFLASEKERDLFKLILKKEDELGDRSIMFTVQNED is 0.07

The recorded Activity, No BP, DF-2500000 for IL-18 variant G3P, E6S, K53R, D54Y, S55P, T63I, N91K (ligand) YFPKLSSKLSVIRNLNDQVLFIDQGNRPLFEDMTDSDMRDNAPRTIFIISMYRYPQPRGMAVIISVKSEKISTLSSENKIISFKEMNPPDKIKDTKSDIIFFQRSVPGHDNKMQFESSSYEGYFLASEKERDLFKLILKKEDELGDRSIMFTVQNED is 0.07

The recorded Activity, No BP, DF-2500000 for IL-18 variant G3L, E6N, I22M, T63V, N91T, R104P (ligand) YFLKLNSKLSVIRNLNDQVLFMDQGNRPLFEDMTDSDMRDNAPRTIFIISMYKDSQPRGMAVVISVKSEKISTLSSENKIISFKEMNPPDTIKDTKSDIIFFQPSVPGHDNKMQFESSSYEGYFLASEKERDLFKLILKKEDELGDRSIMFTVQNED is 0.07

The recorded Activity, No BP, DF-2500000 for IL-18 variant G3Y, E6S, K53S, D54W, S55L, N91I (ligand) YFYKLSSKLSVIRNLNDQVLFIDQGNRPLFEDMTDSDMRDNAPRTIFIISMYSWLQPRGMAVTISVKSEKISTLSSENKIISFKEMNPPDIIKDTKSDIIFFQRSVPGHDNKMQFESSSYEGYFLASEKERDLFKLILKKEDELGDRSIMFTVQNED is 0.15

All figures here come from patent US20240182536A1.
